experiment: qHTS assay for measurement of the activity of small molecule inhibitors on Zika virus induced Caspase-3 activity in human iPSC derived neural progenitor cells (hNPCs) (AID 1224857); conditions: hNPCs ZIKV-induced caspase-3/7, Caspase-Glo luminescence, 6 h; series mostly up to 45.7 µM; also: nearly all actives have a fitted effect of over 65% in size
Results filed as inconclusive are left out. Activity calls are given as the source filed them. Calls follow the shape of the dose curve; as a rule, active = well fitted inhibition curve with a large enough effect; inconclusive = small, poorly fitted or top-dose-only effect; inactive = no such curve, though single readings can be large or run the other way.
QUANTITY: activity change, negative = inhibition

Previously resolved entries follow.
[
  {
    "COMPOUND": "Cc1cccc(Nc2cc(Cl)nc(SCC(=O)O)n2)c1C",
    "activity change, negative = inhibition": "inactive"
  },
  {
    "COMPOUND": "C[C@]12CC[C@@H]3c4ccc(O)cc4CC[C@H]3[C@@H]1CC[C@@H]2OC(=O)CCC1CCCC1",
    "activity change, negative = inhibition": "inactive"
  },
  {
    "COMPOUND": "CCN(CC)C(=O)Nc1ccc(OCC(O)CNC(C)(C)C)c(C(C)=O)c1 (stereo not given)",
    "activity change, negative = inhibition": "inactive"
  },
  {
    "COMPOUND": "c1ccc(CN(CC2=NCCN2)c2ccccc2)cc1",
    "activity change, negative = inhibition": "inactive"
  }
]

Query (compound): CCCCc1ncc(/C=C(\Cc2cccs2)C(=O)O)n1Cc1ccc(C(=O)O)cc1 ; field requested: activity change, negative = inhibition inactive

Values compiled from PubChem BioAssay (NCATS).
